- TESTED ON: recombinant human H/F-A1 adenosine receptor (Homo sapiens)
- Construct: expressed in transfected cells
- Sequence (P30542 with tags, fused parts or gaps): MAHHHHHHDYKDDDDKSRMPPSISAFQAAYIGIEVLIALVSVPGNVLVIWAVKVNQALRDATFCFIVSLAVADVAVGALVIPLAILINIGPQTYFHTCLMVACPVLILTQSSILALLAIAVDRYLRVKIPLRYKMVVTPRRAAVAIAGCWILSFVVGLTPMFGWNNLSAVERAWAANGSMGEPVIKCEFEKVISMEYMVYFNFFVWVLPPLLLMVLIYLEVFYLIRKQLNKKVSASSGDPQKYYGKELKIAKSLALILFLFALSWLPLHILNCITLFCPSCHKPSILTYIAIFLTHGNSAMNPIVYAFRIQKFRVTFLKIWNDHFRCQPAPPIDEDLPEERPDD
- PROTOCOL DETAILS: Competition for radioligand binding, H/F-A1
- CONDITION: competition with 1 nM ^125 I-ABA
ASSAY ENDPOINT: NH (Hill coefficient)
Numbers only.

Some compounds with recorded NH (Hill coefficient):
| SMILES STRING | TESTED ON | RESULT |
| --- | --- | --- |
| OC[C@H]1O[C@@H](n2cnc3c(NC4CCCC4)ncnc32)[C@H](O)[C@@H]1O | recombinant human H/F-A1 adenosine receptor (Homo sapiens) | 0.79 |
| CCCn1c(=O)c2[nH]c(-c3ccc(OCC(=O)NCCN)cc3)nc2n(CCC)c1=O | recombinant human H/F-A1 adenosine receptor (Homo sapiens) | 0.96 |
| Cn1c(=O)c2[nH]c(-c3ccc(S(=O)(=O)O)cc3)nc2n(C)c1=O | recombinant human H/F-A1 adenosine receptor (Homo sapiens) | 0.84 |

Continue with the compound presented below.
Bench note: what NH (Hill coefficient) did `CCNC(=O)[C@H]1O[C@@H](n2cnc3c(N)ncnc32)[C@H](O)[C@@H]1O` show? 0.97
